Where do the numbers come from? From ChEMBL document CHEMBL1201862.

test system: RXF 631; assay: NCI tumour cell line growth inhibition, 48 h
Active and inactive are the calls of the source. Cut-off read from the data, not from the text of the source: active = GI50 up to about 1.1 µM and inactive = higher.
Respond only with the outcome that fits, drawn from Y = active, N = inactive

Q: Hi, do you know how O=S(=O)(/C=C/C(=C/c1ccccc1)S(=O)(=O)c1ccccc1)c1ccccc1 came out in this test?
A: Y

Q: Hi, do you know how O=NN(CCCl)C(=O)N[C@H]1CC[C@@H](C(=O)O)CC1 came out in this test?
A: N

Q: Hi, do you know how CC1CCC(O)C(C(O)CC2CC(=O)N(C)C(=O)C2)C1 (centres undefined) came out in this test?
A: N

Q: Hi, do you know how NS(=O)(=O)c1cc2c(cc1Cl)NC(/C(=N/NC(=O)c1ccncc1)C1C(=O)NC(=O)NC1=O)=NS2(=O)=O came out in this test?
A: N

Q: Hi, do you know how CC1(C)CC(Nc2ccc(Nc3ccccc3)cc2)CC(C)(C)N1 came out in this test?
A: N

Q: Hi, do you know how CC(=O)Oc1cc2c(=O)oc3c(OC(C)=O)c(OC(C)=O)c(OC(C)=O)c4c(=O)oc(c1OC(C)=O)c2c34 came out in this test?
A: N

Q: Hi, do you know how COC(=O)C12Oc3ccc(-c4ccc5c(c4O)C(=O)C4=CCC(C)C(O)C4(C(=O)OC)O5)c(O)c3C(=O)C1=CCC(C)C2O (centres undefined) came out in this test?
A: N

Q: Hi, do you know how COC(=O)C1CC(C(=O)OC)c2nc3cc([N+](=O)[O-])ccc3nc21 (centres undefined) came out in this test?
A: N

Q: Hi, do you know how N#Cc1nc(Nc2ccc([N+](=O)[O-])cc2)sc1N came out in this test?
A: N
